The reported numbers originate from patent US8796249B2.

- System: HepG2 cell
- experimentDescription: HepG2 cell cytotoxicity, ATP decrease
- Type: cell-based
- conditionSummary: human
- Description: Compounds of the invention were evaluated for cytotoxicity using standard methods known in the art. Specifically, cytotoxicity was evaluated using HEPG2 cells and monitoring ATP decrease and determining the EC50 value. […]
Counter-ions that a name gives are not always drawn.
Provide the reported EC50 of each item.

Name the recorded EC50 for CCC1C(O)C2C3CCC(C(C)CC(C)OS(=O)(=O)O)C3(C)CCC2C2(C)CCC(O)CC12 (stereo not drawn) [Compound 2A, Sodium Salt] . > 1000 µM

Give its EC50 value. Item: CC[C@H]1[C@@H](O)[C@@H]2[C@H](C[C@H](O)[C@]3(C)[C@@H]([C@H](C)CCCS(=O)(=O)[O-])CC[C@@H]23)[C@@]2(C)CC[C@@H](O)C[C@@H]12.[Na+] [Compound 3A, Sodium Salt] > 1000 µM

Item CN[C@@H]1C[C@H]2O[C@@](C)([C@@H]1OC)n1c3ccccc3c3c4c(c5c6ccccc6n2c5c31)C(=O)NC4 [Staurosporine, reference compound] has what recorded EC50? 15 µM
